The origin of these recorded values is paper PMC12751025.

Test: Caco-2 permeability
Assay type: in vitro ADME
Conditions: human, Caco-2, pH 7.4; quotient of Papp(BA) to Papp(AB)
Protocol: Caco-2 cells were cultured in 75 cm2 flasks to 80-90% confluence in a humidified atmosphere at 37 °C and 5% CO2. Cells were detached with Trypsin/EDTA solution and resuspended in the complete medium containing DMEM high glucose (4500 mg/L) with L-glutamine (4 mM) supplemented with 10% […] heat-inactivated Fetal Bovine Serum, 1% non-essential amino acids, and 730 nM puromycin and seeded at a density 5 × 10^5 cells in 75 cm2 flask. […]
Measurement kind: efflux ratio at 90 min, 10 μM
Answers are plain numbers.

Task: Dear colleague, I am looking for the recorded efflux ratio at 90 min, 10 μM of the following compound: "O=C(N[C@@H](Cc1ccccc1)C(=O)N[C@H](B(O)O)C1CCCC1)c1cnccn1"
Output: 8.4
